- TEST TARGET: T1, human TF on the cell surface of tumor cells (human, UniProt P13726 33-295)
- T1 construct: whole, on cells; Endogenous TF on TF-positive human tumor cell lines; also called cell surface TF
- TEST: flow cytometry on MDA-MB-231 cells, antibody at 1 µg/mL
Param threshold (3000) applies to MFI; output true (1) when value >= threshold, false (0) when value < threshold.

>>> class_label("TF-mAb-H48 (antibody, V domains shown, Humanized) VH: QVQLVQSGSELKKPGASVKVSCKASGYSFISYWMNWVRQAPGQGLEWIGMIYPADSETRLNQKFKDRAVLSVDKSVSTAYLQICSLKAEDTAVYYCAREDYGSSDYWGQGTTVTVSS VL: EIVLTQSPDFQSVTPKEKVTITCSASSSVSYMNWYQQKPDQSPKIWIYGISNLASGVPSRFSGSGSGTDFTLTINSLEAEDAATYYCQQKSSFPWTFGGGTKVEIK")
"false (0)"
>>> class_label("TF-mAb-H39 (antibody, V domains shown, Humanized; also called humanized antibody TF-mAb-H39) VH: EVQLVQSGAEVKKPGESLKISCKGSGYSFTSYWMNWVRQMPGKGLEWMGMIYPADSETRLNQKFKDQATLSVDKSISTAYLQWSSLKASDTAMYYCAREDYGSSDYWGQGTTVTVSS VL: DIQLTQSPSSLSASVGDRVTITCSASSSVSYMNWYQQKPGKSPKIWIYGISNLASGVPSRFSGSGSGTDFTLTISSLQPEDFATYYCQQKSSFPWTFGGGTKVEIK")
"true (1)"
>>> class_label("TF-mAb-H34 (antibody, V domains shown, Humanized) VH: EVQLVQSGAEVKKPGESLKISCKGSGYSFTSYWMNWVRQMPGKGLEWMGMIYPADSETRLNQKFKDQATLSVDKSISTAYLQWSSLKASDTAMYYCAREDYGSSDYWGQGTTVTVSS VL: EIVLTQSPATLSLSPGERATLSCSASSSVSYMNWYQQKPGQSPRIWIYGISNLASGVPARFSGSGSGTDFTLTISSLEPEDFAVYYCQQKSSFPWTFGGGTKVEIK")
"false (0)"
